Tested On: HLA-A*24:03
Method: IEDB peptide-MHC binding, purified MHC/competitive/fluorescence; filed as Kd, often an IC50 or EC50 that approximates it; bounds were set here for any values at or beyond the usual limits of such assays
Experimental Conditions: source organism: Encephalitozoon cuniculi GB-M1
Readout: pKd
Here pKd is given on a logarithmic scale as minus log10 of the concentration in mol/L.

The sequence RVLENTHIF showed pKd equal to 8.54

====

Tested On: HLA-A*02:03
Method: IEDB peptide-MHC binding, purified MHC/competitive/radioactivity; filed as Kd, often an IC50 or EC50 that approximates it; bounds were set here for any values at or beyond the usual limits of such assays
Experimental Conditions: source organism: Vaccinia virus WR
pKd: −log10 of the molar value.
Please map values of pKd to classes as shown: bin 1 (below 6), bin 2 (6 to below 7), bin 3 (7 or more)

Query: Which bin, given its pKd, does GVLPEETNI occupy?
Result: bin 1

Query: Which bin, given its pKd, does LTPFEKEFT occupy?
Result: bin 1

Query: Which bin, given its pKd, does DVEKRILNT occupy?
Result: bin 1

Query: Which bin, given its pKd, does DLFMSHVKSV occupy?
Result: bin 3

Query: Which bin, given its pKd, does GILIYDDNI occupy?
Result: bin 1

Query: Which bin, given its pKd, does EVIERINLLV occupy?
Result: bin 1

Query: Which bin, given its pKd, does QLVFNSISA occupy?
Result: bin 1

Query: Which bin, given its pKd, does EVTPEYIKDL occupy?
Result: bin 1

Query: Which bin, given its pKd, does IALCKVTVPT occupy?
Result: bin 1

Query: Which bin, given its pKd, does LTSVDIETA occupy?
Result: bin 1

Query: Which bin, given its pKd, does KMAVEVGSI occupy?
Result: bin 3

Query: Which bin, given its pKd, does SMYVIPDEL occupy?
Result: bin 3

Query: Which bin, given its pKd, does NIFMTLVPV occupy?
Result: bin 3

Query: Which bin, given its pKd, does DVFRPLFDFV occupy?
Result: bin 1

Query: Which bin, given its pKd, does DAIKSNNHLT occupy?
Result: bin 1

Query: Which bin, given its pKd, does RALKAYFTA occupy?
Result: bin 2

Query: Which bin, given its pKd, does TIILNKIVQL occupy?
Result: bin 1

Query: Which bin, given its pKd, does MLNRVQILM occupy?
Result: bin 3

Query: Which bin, given its pKd, does DTSPTKRCRL occupy?
Result: bin 1

Query: Which bin, given its pKd, does MISTYPGNT occupy?
Result: bin 2

Query: Which bin, given its pKd, does RIYCSLFKNV occupy?
Result: bin 3

Query: Which bin, given its pKd, does STQQNKLVI occupy?
Result: bin 1

Query: Which bin, given its pKd, does FTKDGKLDDT occupy?
Result: bin 2

Query: Which bin, given its pKd, does EQGDIALAL occupy?
Result: bin 1

Query: Which bin, given its pKd, does ATLNTLITL occupy?
Result: bin 2

Query: Which bin, given its pKd, does TLIQYRQQL occupy?
Result: bin 2

Query: Which bin, given its pKd, does DLNAVTTNNL occupy?
Result: bin 1

Query: Which bin, given its pKd, does EQYTCNKPYT occupy?
Result: bin 1

Query: Which bin, given its pKd, does DLLLPSTDV occupy?
Result: bin 1

Query: Which bin, given its pKd, does LTSNCTRTT occupy?
Result: bin 1

Query: Which bin, given its pKd, does DVGCLLTDTI occupy?
Result: bin 1

Query: Which bin, given its pKd, does VAEHRFENM occupy?
Result: bin 1

Query: Which bin, given its pKd, does FLTGTFVTA occupy?
Result: bin 3

Query: Which bin, given its pKd, does TVEFDRDKVV occupy?
Result: bin 1

Query: Which bin, given its pKd, does LLWFLTGTFV occupy?
Result: bin 3

Query: Which bin, given its pKd, does YVILKDPRI occupy?
Result: bin 2

====

Tested On: HLA-B*58:01
Method: IEDB peptide-MHC binding, purified MHC/direct/fluorescence; filed as Kd, often an IC50 or EC50 that approximates it; bounds were set here for any values at or beyond the usual limits of such assays
Experimental Conditions: source organism: Mycobacterium tuberculosis variant bovis
pKd: −log10 of the molar value.
Readout: pKd

The sequence PMQQLTQPL showed pKd equal to ≤ 4.70

====

Tested On: HLA-B*46:01
Method: IEDB peptide-MHC binding, purified MHC/direct/fluorescence; filed as Kd, often an IC50 or EC50 that approximates it; bounds were set here for any values at or beyond the usual limits of such assays
Experimental Conditions: source organism: Vibrio parahaemolyticus
Readout: Kd

The sequence NSSYWRQGY showed Kd equal to ≥ 20 µM

====

Tested On: HLA-C*03:03
Method: IEDB peptide-MHC binding, purified MHC/direct/fluorescence; filed as Kd, often an IC50 or EC50 that approximates it; bounds were set here for any values at or beyond the usual limits of such assays
Experimental Conditions: source organism: Homo sapiens
pKd: −log10 of the molar value.
Readout: pKd

The sequence SLDDYNHLV showed pKd equal to ≤ 4.70

====

Tested On: HLA-B*48:01
Method: IEDB peptide-MHC binding, purified MHC/direct/fluorescence; filed as Kd, often an IC50 or EC50 that approximates it; bounds were set here for any values at or beyond the usual limits of such assays
Experimental Conditions: source organism: Mycobacterium tuberculosis
pKd: −log10 of the molar value.
Readout: pKd

The sequence AVFPRYHPR showed pKd equal to ≤ 4.70

====

Tested On: HLA-B*57:01
Method: IEDB peptide-MHC binding, purified MHC/competitive/fluorescence; filed as Kd, often an IC50 or EC50 that approximates it; bounds were set here for any values at or beyond the usual limits of such assays
Experimental Conditions: source organism: Kurkino virus
Readout: Kd

The sequence WFLYVSQQI showed Kd equal to ≥ 20 µM

====

Tested On: HLA-B*57:01
Method: IEDB peptide-MHC binding, purified MHC/direct/fluorescence; filed as Kd, often an IC50 or EC50 that approximates it; bounds were set here for any values at or beyond the usual limits of such assays
Experimental Conditions: source organism: Bacillus cereus H3081.97
Readout: Kd

The sequence YSTVRDLFL showed Kd equal to ≥ 20 µM

====

Tested On: HLA-A*26:01
Method: IEDB peptide-MHC binding, purified MHC/competitive/fluorescence; filed as Kd, often an IC50 or EC50 that approximates it; bounds were set here for any values at or beyond the usual limits of such assays
Experimental Conditions: source organism: Rickettsia sibirica 246
Readout: Kd

The sequence SVANIDRIK showed Kd equal to ≥ 20 µM

====

Tested On: HLA-A*02:12
Method: IEDB peptide-MHC binding, purified MHC/direct/fluorescence; filed as Kd, often an IC50 or EC50 that approximates it; bounds were set here for any values at or beyond the usual limits of such assays
Experimental Conditions: source organism: Maciel virus
Readout: Kd

The sequence HTQAIEGAW showed Kd equal to ≥ 20 µM

====

Tested On: HLA-A*68:01
Method: IEDB peptide-MHC binding, purified MHC/competitive/radioactivity; filed as Kd, often an IC50 or EC50 that approximates it; bounds were set here for any values at or beyond the usual limits of such assays
Experimental Conditions: source organism: Mammarenavirus lassaense
Hi there, I'd appreciate the recorded Kd for every entry that follows.
Quick reminder: number only, in µM, skip the unit.

The sequence SGSCLNNEK showed Kd equal to 0.876

The sequence HSYAGDAAEH showed Kd equal to 0.578

====

Tested On: HLA-B*15:01
Method: IEDB peptide-MHC binding, purified MHC/competitive/radioactivity; filed as Kd, often an IC50 or EC50 that approximates it; bounds were set here for any values at or beyond the usual limits of such assays
Experimental Conditions: source organism: Vaccinia virus Copenhagen
Hi there, I'd appreciate the recorded pKd for every entry that follows.
Here pKd is given on a logarithmic scale as minus log10 of the concentration in mol/L.

The sequence LILSCIFAF showed pKd equal to 6.27

The sequence KVSCSMLEF showed pKd equal to 9.08

The sequence VLYSYILFL showed pKd equal to 6.25

====

Tested On: HLA-B*07:02
Method: IEDB peptide-MHC binding, purified MHC/competitive/radioactivity; filed as Kd, often an IC50 or EC50 that approximates it; bounds were set here for any values at or beyond the usual limits of such assays
Experimental Conditions: source organism: Lymphocytic choriomeningitis virus (strain Armstrong)
Readout: Kd (nM)
Quick reminder: number only, in nM, skip the unit.

Reported Kd (HLA-B*07:02) for entry MPSLTMACM is 112

====

Tested On: HLA-A*68:01
Method: IEDB peptide-MHC binding, purified MHC/competitive/radioactivity; filed as Kd, often an IC50 or EC50 that approximates it; bounds were set here for any values at or beyond the usual limits of such assays
Experimental Conditions: source organism: Triticum aestivum
Readout: pKd
Here pKd is given on a logarithmic scale as minus log10 of the concentration in mol/L.

Reported pKd (HLA-A*68:01) for entry SSQVLQQSTY is 5.02
